Below, each of the compounds is paired with its reported inhibition value.
tested on: Botulinum neurotoxin type F light chain protease (Clostridium botulinum); assay: Botulinum neurotoxin type F light chain protease inhibition, multiplex microsphere flow cytometry, validation set (AID 588459); conditions: multiplex microsphere protease substrate cleavage assay, at 10 µM, hits give high values
Entry rule: numbers only, all in %.

{"Compound": "CC(C)C[C@H](NC(=O)NC(C)C)C(=O)O", "Unit string": "%", "inhibition": 1.1}
{"Compound": "O=c1nc2sc3ccccc3n2c(=O)n1-c1ccc(Cl)cc1", "Unit string": "%", "inhibition": 0.3}
{"Compound": "Cc1ccc(S(=O)(=O)NC(C(=O)Oc2cc3oc(=O)cc(C)c3cc2Cl)C(C)C)cc1 (stereo unspecified)", "Unit string": "%", "inhibition": 0.5}
{"Compound": "CC(C)C12CN3CC(C(C)C)(CN(C1)C3c1ccccc1O)C2=O (stereo unspecified)", "Unit string": "%", "inhibition": 4.7}
{"Compound": "Cc1oc2c(CN3CCCC3)c(O)ccc2c(=O)c1-c1ccc(Cl)cc1", "Unit string": "%", "inhibition": -1.2}

For the compound CC(C)c1ccc(OCc2ccc(C(=O)O)o2)cc1 , what inhibition is on record?
0.6
